Where do the numbers come from? From ChEMBL document CHEMBL1142710.

- SYSTEM: Delta-type opioid receptor (Rattus norvegicus)
- Sequence (P33533 whole entry): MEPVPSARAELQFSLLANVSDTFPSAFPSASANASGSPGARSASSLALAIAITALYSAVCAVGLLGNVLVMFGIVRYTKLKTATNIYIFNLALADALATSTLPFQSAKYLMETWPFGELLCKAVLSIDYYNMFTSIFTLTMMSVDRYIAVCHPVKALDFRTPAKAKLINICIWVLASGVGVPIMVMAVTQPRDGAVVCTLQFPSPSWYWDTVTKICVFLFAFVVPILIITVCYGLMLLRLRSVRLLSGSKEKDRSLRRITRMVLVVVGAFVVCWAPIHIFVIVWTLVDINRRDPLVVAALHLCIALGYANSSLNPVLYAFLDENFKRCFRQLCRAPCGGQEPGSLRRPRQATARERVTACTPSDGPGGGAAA
- PROTOCOL_SUMMARY: Binding affinity against Opioid receptor delta 1 from rat brain membranes using [3H]DADLE
# Ki per entry

{"columns": ["COMPOUND", "Ki [nM]"],
 "data": [
  ["C=C(C)CN1CCC23c4c5ccc(OC)c4O[C@H]2c2ncc(-c4ccc(Cl)cc4)cc2C[C@@]3(O)C1C5 (some centres undefined)", 257],
  ["CC(C)CN1CC[C@]23c4c5ccc(O)c4O[C@@H]2c2[nH]c4ccccc4c2C[C@@]3(O)[C@H]1C5", 3.8],
  ["Cc1ccc2c3c1O[C@@H]1c4[nH]c5ccccc5c4C[C@@]4(O)[C@@H](C2)N(CC2CC2)CC[C@]314", 70.8],
  ["Oc1ccc2c3c1O[C@@H]1c4[nH]c5c(-c6ccccc6)cccc5c4C[C@@]4(O)[C@@H](C2)N(CC2CC2)CC[C@]314", 2.09]
]}

---

# pKi per entry
- SYSTEM: Kappa-type opioid receptor (Cavia porcellus)
- Sequence (P41144 whole entry): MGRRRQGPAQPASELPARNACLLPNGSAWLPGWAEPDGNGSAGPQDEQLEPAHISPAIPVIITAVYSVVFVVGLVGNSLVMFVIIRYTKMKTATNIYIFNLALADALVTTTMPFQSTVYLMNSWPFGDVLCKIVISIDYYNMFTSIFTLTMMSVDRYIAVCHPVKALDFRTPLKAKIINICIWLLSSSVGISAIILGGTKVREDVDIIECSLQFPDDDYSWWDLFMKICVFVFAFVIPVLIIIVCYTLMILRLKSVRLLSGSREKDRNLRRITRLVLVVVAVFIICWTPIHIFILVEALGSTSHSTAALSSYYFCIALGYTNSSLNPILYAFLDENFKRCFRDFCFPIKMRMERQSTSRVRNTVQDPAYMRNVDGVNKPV
- PROTOCOL_SUMMARY: Binding affinity against Opioid receptor kappa 1 from guinea pig brain membranes using [3H]U-69593
pKi: −log10 of the molar value.

{"columns": ["COMPOUND", "pKi"],
 "data": [
  ["C=C(N)NCCC(=O)NC1CC2CC(c3cccc(O)c3)(C1)C(C)CN2CCCc1ccccc1 (configuration not stated)", 7.63],
  ["Oc1ccc2c3c1O[C@@H]1c4[nH]c5cccc(-c6ccccc6)c5c4C[C@@]4(O)[C@@H](C2)N(CC2CC2)CC[C@]314", 5.53],
  ["CN1CCC23c4c5ccc(O)c4O[C@H]2c2ncc(-c4ccc(Cl)c(Cl)c4)cc2C[C@H]3C1C5 (some centres not stated)", 6.56],
  ["C=C(C)CN1CCC23c4c5ccc(O)c4O[C@H]2c2[nH]ncc2C[C@@]3(O)C1C5 (some centres not stated)", 7.42],
  ["COc1ccc2c(c1O)[C@]13CCN(CC4CC4)C(C2)[C@]1(O)CC1c2ccccc2NC1C3 (some centres not stated)", 5.50],
  ["Oc1ccc2c3c1O[C@@H]1c4[nH]c5cc(Oc6ccccc6)ccc5c4C[C@@]4(O)[C@@H](C2)N(CC2CC2)CC[C@]314", 6.63],
  ["CCO[C@@]12Cc3c([nH]c4ccccc34)[C@]3(C)Oc4c(O)ccc5c4C31CCN(CC1CC1)[C@@H]2C5", 7.23],
  ["C=C(C)CN1CCC23c4c5ccc(O)c4O[C@H]2C(=O)C2(CCc4ccccc42)C[C@@]3(O)C1C5 (some centres not stated)", 6.00],
  ["COc1ccc2c(c1O)[C@]13CCN(CC4CC4)C(C2)[C@@H]1CC1c2ccccc2NC1C3 (some centres not stated)", 5.10],
  ["CN1CCC23c4c5ccc(O)c4O[C@H]2c2ncc(-c4ccccc4)cc2C[C@@]3(O)C1C5 (some centres not stated)", 6.44],
  ["CCCCCN1CC[C@]23c4c5ccc(O)c4O[C@@H]2c2[nH]c4ccccc4c2C[C@@]3(O)[C@H]1C5", 5.70],
  ["Oc1ccc2c3c1O[C@H]1c4ncc(-c5ccc(Cl)cc5)cc4C[C@H]4C(C2)N(CC2CC2)CCC314 (some centres not stated)", 8.22],
  ["CO[C@@]12CCC(=O)CC13CCN(CC1CC1)C2Cc1cccc(OC/C=C/c2ccccc2)c13 (some centres not stated)", 6.44],
  ["C=C(C)CN1CC[C@]23c4c5ccc(O)c4O[C@@H]2c2[nH]c4ccccc4c2C[C@@]3(O)[C@H]1C5", 5.42],
  ["CCO[C@@]12Cc3c([nH]c4ccccc34)[C@]3(C)Oc4c(O)ccc5c4[C@@]31CCN(C)[C@@H]2C5", 6.54],
  ["O=C(Oc1cccc2[nH]c3c(c12)C[C@@]1(O)[C@H]2Cc4ccc(O)c5c4[C@@]1(CCN2CC1CC1)[C@@H]3O5)c1ccccc1", 6.27],
  ["Oc1ccc2c3c1O[C@@H]1c4[nH]c5cc(-c6ccccc6)ccc5c4C[C@@]4(O)[C@@H](C2)N(CC2CC2)CC[C@]314", 6.20],
  ["CCCN1CC[C@]23c4c5ccc(O)c4O[C@@H]2c2[nH]c4ccccc4c2C[C@@]3(O)[C@H]1C5", 6.42],
  ["Cc1cc(-c2ccccc2)c2c(n1)[C@@H]1Oc3c(O)ccc4c3C13CCN(CC1CC1)C(C4)[C@]3(O)C2 (some centres not stated)", 6.17],
  ["CN1CCC23c4c5ccc(O)c4O[C@H]2c2ncc(-c4ccc(Br)cc4)cc2C[C@H]3C1C5 (some centres not stated)", 7.04],
  ["C=C(C)CN1CCC23c4c5ccc(OC)c4O[C@H]2c2ncc(-c4ccc(Cl)cc4)cc2C[C@@]3(O)C1C5 (some centres not stated)", 5.49],
  ["CO[C@@]12CCC(=O)CC13CCN(CC1CC1)C2Cc1cccc(OCc2ccccc2)c13 (some centres not stated)", 7.25],
  ["O=C1CC[C@@]2(OCCCc3ccccc3)C3Cc4cccc(O)c4C2(CCN3CC2CC2)C1 (some centres not stated)", 8.23],
  ["CN1CCC23c4c5ccc(O)c4O[C@H]2c2ncc(-c4ccccc4)cc2C[C@H]3C1C5 (some centres not stated)", 7.09],
  ["CCCCOc1cccc2c1[C@]13CCN(CC4CC4)[C@H](C2)[C@]1(OC)CCC(=O)C3", 6.58],
  ["CC1CN(CCCc2ccccc2)C2CC(NC(=O)CCCN(C)C)CC1(c1cccc(O)c1)C2 (configuration not stated)", 7.92],
  ["Oc1ccc2c3c1O[C@H]1c4ncc(-c5ccccc5)cc4C[C@@]4(O)C(C2)N(CC2CC2)CCC314 (some centres not stated)", 7.75],
  ["Oc1ccc2c3c1O[C@@H]1c4[nH]c5cccc(Oc6ccccc6)c5c4C[C@@]4(O)[C@@H](C2)N(CC2CC2)CC[C@]314", 5.88],
  ["Oc1ccc2c3c1O[C@@H]1c4[nH]c5c(Oc6ccccc6)cccc5c4C[C@@]4(O)[C@@H](C2)N(CC2CC2)CC[C@]314", 7.47],
  ["CC(C)CCN1CC[C@]23c4c5ccc(O)c4O[C@@H]2c2[nH]c4ccccc4c2C[C@@]3(O)[C@H]1C5", 6.17],
  ["Oc1ccc2c3c1O[C@@H]1c4[nH]c5ccc(Oc6ccccc6)cc5c4C[C@@]4(O)[C@@H](C2)N(CC2CC2)CC[C@]314", 7.12],
  ["C=C(N)NCCCC(=O)NC1CC2CC(c3cccc(O)c3)(C1)C(C)CN2CCCc1ccccc1 (configuration not stated)", 7.88]
]}
